Tested on: Staphylococcus aureus
test: Antibacterial activity against methicillin-sensitive Staphylococcus aureus after 18 to 20 hrs by microbroth dilution method
Format: functional
endpointLabel: MIC

smilesEntry	result
COc1cccc(N(CCCN(Cc2ccccc2)S(=O)(=O)c2ccc([N+](=O)[O-])cc2[N+](=O)[O-])S(=O)(=O)c2ccc([N+](=O)[O-])cc2[N+](=O)[O-])c1	> 32 µg/mL
CCCCN(c1ccccc1OC)S(=O)(=O)c1ccc([N+](=O)[O-])cc1[N+](=O)[O-]	> 32 µg/mL
O=[N+]([O-])c1ccc(S(=O)(=O)N(CCCN(Cc2ccccc2)S(=O)(=O)c2ccc([N+](=O)[O-])cc2[N+](=O)[O-])Cc2ccccc2)c([N+](=O)[O-])c1	> 16 µg/mL
COc1ccc(NS(=O)(=O)c2ccc([N+](=O)[O-])cc2[N+](=O)[O-])cc1	> 16 µg/mL
O=[N+]([O-])c1ccc(S(=O)(=O)NCc2ccccc2)c([N+](=O)[O-])c1	> 16 µg/mL
CCCN(c1ccccc1OC)S(=O)(=O)c1ccc([N+](=O)[O-])cc1[N+](=O)[O-]	> 32 µg/mL

Using Staphylococcus aureus as the test system, report measured MIC of COc1ccccc1CN(CCCN(Cc1ccccc1)S(=O)(=O)c1ccc([N+](=O)[O-])cc1[N+](=O)[O-])S(=O)(=O)c1ccc([N+](=O)[O-])cc1[N+](=O)[O-] .
> 32 µg/mL
